Please respond with reported LE for every item in the list.
TESTED TARGET: FLT3 kinase (Homo sapiens)
Construct: purchased Invitrogen
Sequence (P36888 27-993): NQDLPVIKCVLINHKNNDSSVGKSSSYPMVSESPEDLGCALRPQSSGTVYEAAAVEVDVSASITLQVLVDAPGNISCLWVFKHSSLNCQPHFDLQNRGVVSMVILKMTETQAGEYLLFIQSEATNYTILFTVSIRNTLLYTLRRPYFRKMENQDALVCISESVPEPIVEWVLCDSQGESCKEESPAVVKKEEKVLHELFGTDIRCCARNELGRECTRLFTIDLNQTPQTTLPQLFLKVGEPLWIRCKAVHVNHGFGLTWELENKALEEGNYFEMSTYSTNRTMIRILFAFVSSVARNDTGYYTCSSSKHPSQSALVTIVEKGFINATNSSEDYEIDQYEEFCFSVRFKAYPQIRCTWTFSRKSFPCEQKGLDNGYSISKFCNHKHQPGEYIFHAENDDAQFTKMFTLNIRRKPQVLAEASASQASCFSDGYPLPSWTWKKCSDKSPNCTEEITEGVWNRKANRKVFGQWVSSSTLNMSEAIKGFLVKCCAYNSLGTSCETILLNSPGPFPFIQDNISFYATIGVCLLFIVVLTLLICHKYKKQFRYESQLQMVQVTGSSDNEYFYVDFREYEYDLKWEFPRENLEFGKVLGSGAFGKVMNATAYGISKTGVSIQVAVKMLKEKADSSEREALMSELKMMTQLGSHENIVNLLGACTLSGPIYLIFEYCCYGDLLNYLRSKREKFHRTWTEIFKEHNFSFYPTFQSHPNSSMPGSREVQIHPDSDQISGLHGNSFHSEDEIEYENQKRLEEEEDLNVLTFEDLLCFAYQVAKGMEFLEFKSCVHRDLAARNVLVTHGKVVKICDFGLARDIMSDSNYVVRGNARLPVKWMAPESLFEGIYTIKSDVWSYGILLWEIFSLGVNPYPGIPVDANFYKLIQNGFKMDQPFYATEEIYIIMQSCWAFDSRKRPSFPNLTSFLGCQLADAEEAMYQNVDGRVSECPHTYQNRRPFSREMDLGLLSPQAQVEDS
TEST DESCRIPTION: Biochemical enzyme inhibition assay (microfluidics, Caliper EZ Reader II), FLT3
EXPERIMENTAL PARAMETERS: ligand efficiency for FLT3 inhibition
Just the number, please, no unit after it.

Record CS(=O)(=O)c1ccc(Nc2cc(Oc3ccc(CC(=O)Nc4cccc(F)c4)cc3)ncn2)cc1 [13aa] . Reported LE: 0.20

Record Cc1ccc(-n2nc(C(C)(C)C)cc2NC(=O)Cc2ccc(Nc3cc(Nc4ccc(S(C)(=O)=O)cc4)ncn3)cc2)cc1 [13h] . Reported LE: 0.16

Record COc1ccc(CNC(=O)Cc2ccc(Oc3cc(NC4CCN(Cc5ccccc5)CC4)ncn3)cc2)c(OC)c1 [13ak] . Reported LE: 0.16

Record Cn1nc(C(C)(C)C)cc1NC(=O)Cc1ccc(Oc2cc(Nc3ccc(S(C)(=O)=O)cc3)ncn2)cc1 [13e] . Reported LE: 0.24

Record CC(C)(C)c1cc(NC(=O)Nc2ccc(Nc3cc(Nc4ccc(S(C)(=O)=O)cc4)ncn3)cc2)no1 [24c] . Reported LE: 0.28

Record Cn1nc(C(C)(C)C)cc1NC(=O)Cc1ccc(Nc2cc(NCCCN3CCCCC3)ncn2)cc1 [13c] . Reported LE: 0.26

Record CNc1cc(Oc2ccc(CC(=O)Nc3ccc(C(C)(C)C)cc3)cc2)ncn1 [13x] . Reported LE: 0.25

Record CC(C)(C)c1cc(NC(=O)Cc2ccc(Nc3cc(NCCCN4CCCC4)ncn3)cc2)no1 [13n] . Reported LE: 0.23

Record CS(=O)(=O)c1ccc(Nc2cc(Nc3ccc(CC(=O)NC4CC4)cc3)ncn2)cc1 [13ae] . Reported LE: 0.23

Record CNc1cc(Oc2ccc(CC(=O)Nc3ccc(F)cc3)cc2)ncn1 [13ad] . Reported LE: 0.26

Record O=C(Cc1ccc(Nc2cc(NCCCN3CCCCC3)ncn2)cc1)Nc1ccc(OC(F)(F)F)cc1 [13y] . Reported LE: 0.19

Record O=C(Cc1ccc(Nc2cc(N3CCOCC3)ncn2)cc1)NC1CC1 [13ai] . Reported LE: 0.25

Record CNc1cc(Nc2ccc(CC(=O)Nc3ccc(OC(F)(F)F)cc3)cc2)ncn1 [13z] . Reported LE: 0.23

Record Cn1nc(C(C)(C)C)cc1NC(=O)Cc1ccc(Oc2cc(Nc3cccc(C(F)(F)F)c3)ncn2)cc1 [13f] . Reported LE: 0.22

Record Cn1nc(C(C)(C)C)cc1NC(=O)Cc1ccc(Nc2cc(NCCCN3CCCC3)ncn2)cc1 [13d] . Reported LE: 0.24

Record Cn1nc(C(C)(C)C)cc1NC(=O)Nc1ccc(Nc2cc(Nc3ccc(S(C)(=O)=O)cc3)ncn2)cc1 [24a] . Reported LE: 0.27

###

TESTED TARGET: FLT3 kinase (Homo sapiens)
Construct: purchased Invitrogen
TEST DESCRIPTION: Biochemical enzyme inhibition assay (microfluidics, Caliper EZ Reader II), FLT3
EXPERIMENTAL PARAMETERS: ligand efficiency for FLT3 inhibition
Experimental: Kinase activity was measured in a microfluidics assay that monitors the separation of a phosphorylated product from substrate[31],[32]. […] After, 1 μL was transferred into a 384-well polypropylene assay plate (Greiner, Frickenhausen, Germany). […] Percent inhibition was measured for each well comparing starting peptide to phosphorylated product peaks relative to the baseline. […] IC50 values were generated in duplicate and error was calculated from the standard deviation between values. […]
ATTRIBUTE MEASURED: LE
Just the number, please, no unit after it.

Record CS(=O)(=O)c1ccc(Nc2cc(Nc3ccc(CC(=O)Nc4cccc(F)c4)cc3)ncn2)cc1 [13ac] . Reported LE: 0.19

Record Cn1nc(C(C)(C)C)cc1NC(=O)Cc1ccc(Nc2cc(Nc3ccc(S(C)(=O)=O)cc3)ncn2)cc1 [13a] . Reported LE: 0.28

Record Cn1nc(C(C)(C)C)cc1NC(=O)Cc1ccc(Nc2cc(N3CCOCC3)ncn2)cc1 [13i] . Reported LE: 0.27

Record CC(C)(C)c1cc(NC(=O)Cc2ccc(Oc3cc(Nc4cccc(C(F)(F)F)c4)ncn3)cc2)no1 [13l] . Reported LE: 0.23

Record CS(=O)(=O)c1ccc(Nc2cc(Nc3ccc(CC(=O)Nc4cccc(C(F)(F)F)c4)cc3)ncn2)cc1 [13s] . Reported LE: 0.22

Record O=C(Cc1ccc(Nc2cc(NCCCN3CCCC3)ncn2)cc1)Nc1cccc(C(F)(F)F)c1 [13ab] . Reported LE: 0.19

Record CC(C)(C)c1cc(NC(=O)Cc2ccc(Nc3cc(Nc4cccc(C(F)(F)F)c4)ncn3)cc2)no1 [13m] . Reported LE: 0.22

Record CNc1cc(Nc2ccc(CC(=O)Nc3cccc(C(F)(F)F)c3)cc2)ncn1 [13r] . Reported LE: 0.30
